Test system: Raji
Assay: Cytotoxicity against human Raji cells assessed as [methyl-3H]thymidine incorporation into DNA at 1 ug/ml after 24 hrs
Format: functional, cell-based
The source made the active and inactive calls. The calls are words filed in the database; no cut-off is given here.
Experimental endpoint: Activity

C[C@H](O)[C@]1(O)CC[C@@]2(O)[C@]1(C)[C@H](OC(=O)/C=C/c1ccccc1)C[C@@H]1[C@@]3(C)CC[C@H](O)CC3=CC[C@]12O ... inactive
CC(=O)[C@]1(O)CC[C@@]2(O)[C@]1(C)[C@H](OC(=O)/C=C/c1ccccc1)C[C@@H]1[C@@]3(C)CC[C@H](O)CC3=CC[C@]12O ... inactive
CO[C@H]1C[C@H](O[C@H]2CC[C@@]3(C)C(=CC[C@]4(O)[C@@H]3C[C@@H](OC(=O)c3ccccc3)[C@@]3(C)[C@]4(O)CC[C@@]3(O)[C@H](C)OC(=O)/C=C/c3ccccc3)C2)O[C@H](C)[C@H]1O ... inactive
